molecular target: UniProt:P00533; experiment: EGF receptor phosphorylation assay in whole cells (EGFR-NIH3T3 assay); details: EGF receptor kinase activity in whole cells
Sequence (P00533 25-1210): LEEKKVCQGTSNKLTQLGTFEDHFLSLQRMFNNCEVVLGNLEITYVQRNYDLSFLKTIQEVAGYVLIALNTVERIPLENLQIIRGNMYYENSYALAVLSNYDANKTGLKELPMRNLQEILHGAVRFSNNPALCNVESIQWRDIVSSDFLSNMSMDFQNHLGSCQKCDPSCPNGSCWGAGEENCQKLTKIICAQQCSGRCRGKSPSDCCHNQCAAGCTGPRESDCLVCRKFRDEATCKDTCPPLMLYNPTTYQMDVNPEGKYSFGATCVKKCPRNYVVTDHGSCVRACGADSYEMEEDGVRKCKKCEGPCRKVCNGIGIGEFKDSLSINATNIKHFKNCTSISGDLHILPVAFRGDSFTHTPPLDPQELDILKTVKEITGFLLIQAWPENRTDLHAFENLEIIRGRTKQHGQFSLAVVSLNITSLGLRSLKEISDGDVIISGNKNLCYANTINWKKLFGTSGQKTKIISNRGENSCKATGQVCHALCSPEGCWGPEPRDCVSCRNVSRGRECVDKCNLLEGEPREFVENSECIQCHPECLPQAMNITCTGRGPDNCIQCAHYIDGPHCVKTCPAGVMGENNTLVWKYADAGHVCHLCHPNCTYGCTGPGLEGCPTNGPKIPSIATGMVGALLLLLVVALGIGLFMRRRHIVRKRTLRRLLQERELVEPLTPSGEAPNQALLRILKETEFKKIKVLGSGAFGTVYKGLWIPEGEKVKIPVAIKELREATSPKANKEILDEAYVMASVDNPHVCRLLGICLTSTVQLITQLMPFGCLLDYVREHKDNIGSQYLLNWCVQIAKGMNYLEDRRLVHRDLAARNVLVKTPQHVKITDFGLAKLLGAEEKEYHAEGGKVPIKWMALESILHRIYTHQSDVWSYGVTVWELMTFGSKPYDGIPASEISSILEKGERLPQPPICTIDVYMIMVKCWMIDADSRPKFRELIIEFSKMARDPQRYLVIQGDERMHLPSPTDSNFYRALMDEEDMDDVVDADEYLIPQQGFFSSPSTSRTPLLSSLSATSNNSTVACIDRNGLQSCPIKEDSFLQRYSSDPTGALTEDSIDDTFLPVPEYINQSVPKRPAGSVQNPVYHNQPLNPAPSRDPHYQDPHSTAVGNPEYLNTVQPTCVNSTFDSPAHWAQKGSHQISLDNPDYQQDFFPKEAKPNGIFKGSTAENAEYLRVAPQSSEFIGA
QUANTITY: IC50

INSERT INTO assay_data (line_notation, quantity, test_value) VALUES
  ('COC(=O)Nc1nc2ccc(Oc3ccccc3)nc2[nH]1', 'IC50', '> 100 µM');
